Sourced from patent US8487121B2

Molecular target: Human TRPV3 (Homo sapiens, UniProt Q8NET8)
Construct: expressed in transfected cells; host or cells: CHO cells (G-418 selected)
Sequence (Q8NET8 1-790): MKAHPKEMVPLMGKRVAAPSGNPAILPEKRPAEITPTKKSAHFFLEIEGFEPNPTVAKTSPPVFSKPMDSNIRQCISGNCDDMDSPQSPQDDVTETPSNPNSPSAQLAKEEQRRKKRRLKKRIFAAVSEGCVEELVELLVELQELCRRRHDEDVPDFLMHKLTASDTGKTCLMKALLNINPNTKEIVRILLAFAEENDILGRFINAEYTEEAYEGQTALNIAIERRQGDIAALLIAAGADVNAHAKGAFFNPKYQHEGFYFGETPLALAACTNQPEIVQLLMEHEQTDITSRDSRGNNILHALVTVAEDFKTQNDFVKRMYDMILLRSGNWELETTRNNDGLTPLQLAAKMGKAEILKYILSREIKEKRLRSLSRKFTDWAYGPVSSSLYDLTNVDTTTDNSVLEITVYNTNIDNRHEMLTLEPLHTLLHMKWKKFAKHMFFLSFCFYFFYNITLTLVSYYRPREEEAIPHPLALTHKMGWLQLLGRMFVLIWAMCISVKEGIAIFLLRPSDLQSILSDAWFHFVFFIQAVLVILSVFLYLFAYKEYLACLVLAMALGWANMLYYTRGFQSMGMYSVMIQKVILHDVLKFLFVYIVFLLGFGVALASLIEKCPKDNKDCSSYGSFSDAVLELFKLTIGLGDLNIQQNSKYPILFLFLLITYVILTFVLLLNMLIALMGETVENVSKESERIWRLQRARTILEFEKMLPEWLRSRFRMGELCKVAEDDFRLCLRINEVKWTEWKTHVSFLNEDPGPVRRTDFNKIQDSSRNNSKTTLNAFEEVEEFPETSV
Assay: 45Calcium uptake assay: inhibition of 2-APB induced cellular uptake of radioactive calcium
Type: cell-based
Conditions: 1.0 μM compound; human TRPV3 expressing CHO cells; 2-APB 500 μM; read-out: Percentage inhibition at 1.0 μM
ENDPOINT: inhibition at 1 µM (%)
Please state the figure in %; there is no need to write the unit.

For reference, reported inhibition at 1 µM for `O=C(CCc1ccc(OC(F)F)c2ccccc12)N[C@@H]1CC2(CCC2)Oc2ccc(Cl)cc21` stands at 53.5

For reference, reported inhibition at 1 µM for O=C(CCc1c[nH]c2ccccc12)NC1CC2(CCC2)Oc2ccc(Cl)cc21 (stereo not drawn) stands at 39.4

For reference, reported inhibition at 1 µM for COc1cccc(CCCC(=O)NC2CC3(CCC3)Oc3ccc(Cl)cc32)c1OC1CCCC1 (stereo not drawn) stands at 86.1

For reference, reported inhibition at 1 µM for COc1ccc(CC(=O)NC2CC3(CCC3)Oc3ccc(Cl)cc32)cc1OC (stereo not drawn) stands at 9.2

For reference, reported inhibition at 1 µM for COc1cccc(CCC(=O)NC2CC3(CCCC3)Oc3ccc(Cl)cc32)c1OC1CCCC1 (stereo not drawn) stands at 11.6

For reference, reported inhibition at 1 µM for COc1cccc(CCC(=O)NC2CC3(CCC3)Oc3cc(C)c(Cl)cc32)c1OC1CCCC1 (stereo not drawn) stands at 35.4

For reference, reported inhibition at 1 µM for COc1cccc(CCCC(=O)NC2CC3(CCC3)Oc3c(Cl)cc(Cl)cc32)c1OC1CCCC1 (stereo not drawn) stands at 36.9

For reference, reported inhibition at 1 µM for COc1ccc2[nH]c(C)c(CC(=O)NC3CC4(CCC4)Oc4ccc(Cl)cc43)c2c1 (stereo not drawn) stands at 19

For reference, reported inhibition at 1 µM for `COc1cccc(CCC(=O)N[C@@H]2CC3(CCC3)Oc3ccc(Cl)cc32)c1OC1CCCC1` stands at 47.2
